biological target: human JAK3 catalytic kinase (JH1) domain (Homo sapiens (Human), UniProt P52333); test: ADP-Glo Kinase Assay, recombinant JAK3 catalytic kinase (JH1) domain; type: biochemical; conditions: recombinant JH1 domain 0.3 nM, 4 μM ATP, JAK3-974 peptide, mean, read-out: JAK3 biochem IC50 (nM) Mean
Sequence (P52333 822-1111): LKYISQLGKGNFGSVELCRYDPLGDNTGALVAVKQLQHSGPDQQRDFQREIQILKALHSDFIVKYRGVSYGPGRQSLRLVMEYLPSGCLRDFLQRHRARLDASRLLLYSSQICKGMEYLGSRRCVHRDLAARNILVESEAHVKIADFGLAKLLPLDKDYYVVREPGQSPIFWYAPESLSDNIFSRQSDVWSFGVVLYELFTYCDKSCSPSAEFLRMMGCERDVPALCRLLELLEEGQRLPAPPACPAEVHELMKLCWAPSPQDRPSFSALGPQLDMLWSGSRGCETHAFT
# IC50 annotations

See these solved cases before continuing.
Cn1cc(-c2cc3c(N4CC5CCC(C4)N5S(=O)(=O)C4CC4)ncnc3[nH]2)cn1 :: 650 nM
CN1CCOC(c2nc3c(N4CC5CCC(C4)N5C(=O)[C@@H]4C[C@H]4F)ccnc3[nH]2)C1 (stereo partly shown) :: 10000 nM
Cc1c(-c2cc3c(N4CC5CCC(C4)N5C(=O)C4CC4)ncnn3c2)cnn1C :: 7690 nM

Moving on to another compound below.
For the compound `Cn1cc(-c2cc3c(N4CC5CCC(C4)N5C(=O)C(C)(F)F)ncnn3c2)cn1` , what IC50 is on record? 703 nM

====

Molecular target: human JAK2 catalytic kinase (JH1) domain (Homo sapiens (Human), UniProt O60674)
Sequence (O60674 849-1124): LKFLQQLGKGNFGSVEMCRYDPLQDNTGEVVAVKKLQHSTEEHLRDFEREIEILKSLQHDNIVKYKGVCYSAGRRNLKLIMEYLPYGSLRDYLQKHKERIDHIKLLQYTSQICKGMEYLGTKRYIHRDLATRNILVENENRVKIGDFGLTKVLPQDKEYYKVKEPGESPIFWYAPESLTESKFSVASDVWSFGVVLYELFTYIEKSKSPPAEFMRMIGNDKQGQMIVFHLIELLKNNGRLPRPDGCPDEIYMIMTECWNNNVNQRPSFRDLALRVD
Test: ADP-Glo Kinase Assay, recombinant JAK2 catalytic kinase (JH1) domain
Assay type: biochemical
Details: recombinant JH1 domain 0.2 nM, 15 μM ATP, JAK3-974 peptide, mean, read-out: JAK2 biochem IC50 (nM) Mean
Method: Compounds of the disclosure were assessed for their ability to inhibit TYK2, JAK1, JAK2, and JAK3 activity. The inhibitory properties of the compounds of the disclosure described herein can be evidenced by testing in any one of the following protocols. The kinase activity of recombinantly generated catalytic kinase (also known as JH1) domain of human JAK1, JAK2, JAK3 and TYK2 were evaluated in a plate-based assay using the ADP-Glo™ Kinase Assay platform. […]
# IC50 annotations
I'd appreciate it if you wrote the number followed by its unit.

See these solved cases before continuing.
COc1cc(-c2cc3c(N4CC5CCC(C4)N5C(=O)[C@@H]4C[C@H]4F)ccnn3c2)cnn1 :: 220 nM
Cc1cncc(-c2cc3c(N4CC5CCC(C4)N5C(=O)[C@@H]4C[C@H]4F)ccnn3c2)n1 :: 674 nM
N#Cc1cc(-c2cc3c(N4CC5CCC(C4)N5C(=O)[C@@H]4C[C@H]4F)ncnn3c2)ccn1 :: 942 nM
Cn1cc(-c2nc3c(N4CC5CCC(C4)N5C(=O)[C@@H]4C[C@H]4F)ccnc3[nH]2)c(F)n1 :: 14 nM
Cn1cc(-c2cc3c(N4CC5CCC(C4)N5C(=O)C4CC(F)(F)C4)ncnn3c2)cn1 :: 6360 nM

Form: Entry = Cn1cc(-c2cc3c(N4CC5CCC(C4)N5C(=O)[C@H]4C[C@H]4C#N)ncnn3c2)cn1 (racemic) [Example 65] | System = human JAK2 catalytic kinase (JH1) domain (Homo sapiens (Human), UniProt O60674) | IC50 = ____ 9840 nM

Form: Entry = N#CC1CC(C(=O)N2C3CCC2CN(c2ncnn4cc(-c5cnn(C(F)F)c5)cc24)C3)C1 (stereo not shown) | System = human JAK2 catalytic kinase (JH1) domain (Homo sapiens (Human), UniProt O60674) | IC50 = ____ 7960 nM

====

# IC50 annotations
molecular target: human JAK3 catalytic kinase (JH1) domain (Homo sapiens (Human)); test: ADP-Glo Kinase Assay, recombinant JAK3 catalytic kinase (JH1) domain; type: biochemical; conditions: recombinant JH1 domain 0.3 nM, 4 μM ATP, JAK3-974 peptide, mean, read-out: JAK3 biochem IC50 (nM) Mean
Give your result in nM as a bare value.

Cn1ncc(-c2cc3c(N4CC5CCC(C4)N5C(=O)[C@@H]4C[C@H]4F)ncnn3c2)c1F :: 4040
Cn1cc(-c2cc3c(N4CC5CCC(C4)N5C(=O)[C@H]4C[C@H]4C#N)ncnn3c2)cn1 (racemic) [Example 65] :: 6790

Moving on to another compound below.
For the compound `Cn1cc(-c2[nH]c3nccc(N4CC5CCC(C4)N5C(=O)[C@@H]4C[C@H]4F)c3c2C#N)cn1` , what IC50 is on record? 455

Source of measurements: patent US20240360157A1
